test system: ALK; conditions: concentration: 1 μM, replicates: in singlicate; n = 1;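 note: KINOMEscan kinase panel screen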
%Inh less than 8% is true; %Inh greater than or equal to 8% is false.

Problem: %Inh under 8%? Item: Nc1nc(-c2ccc3c(N)n[nH]c3c2)cc(N2CCC[C@@H](C(=O)Nc3ccccc3)C2)n1.O=C(O)C(F)(F)F.O=C(O)C(F)(F)F
Result: true

Problem: %Inh under 8%? Item: COc1ccc(-c2nc3n(c2-c2ccncc2)CCC3)cc1
Result: true

Problem: %Inh under 8%? Item: CN1CCC(n2cnc(-c3ccc(F)cc3)c2-c2ccnc(NC3CCNCC3)n2)CC1
Result: false

Problem: %Inh under 8%? Item: Cl.Cn1ccc(-c2cccc(Nc3ccnc4cc(-c5nccs5)ccc34)c2)n1
Result: false

Problem: %Inh under 8%? Item: Fc1ccc(Nc2nccc(-c3c(-c4ccc(Cl)cc4)nn4ncccc34)n2)cc1F
Result: false

Problem: %Inh under 8%? Item: Cc1ccc(C)c(NC(=O)NCCNc2ccnc(Nc3ccc(F)cc3)n2)c1
Result: true

Problem: %Inh under 8%? Item: CC(C)(C)OC(=O)NC1CCCN(c2cc(-c3ccc4c(N)n[nH]c4c3)nc(N)n2)C1 (stereo not shown)
Result: false

Problem: %Inh under 8%? Item: Cl.Fc1ccccc1COc1ccc(Nc2ncnc3ccc(-c4nnc(C(F)(F)F)o4)cc23)cc1Cl
Result: true

Problem: %Inh under 8%? Item: CCCc1ccc(S(=O)(=O)NC2CCN(c3ccnc(Nc4ccc(OC)cc4)n3)C2)cc1 (stereo not shown)
Result: false

Problem: %Inh under 8%? Item: Oc1ccc2ncnc(Nc3ccc(OCc4ccccc4)cc3)c2c1
Result: false

Problem: %Inh under 8%? Item: Cc1ccc(NC(=O)c2cccc(C#N)c2)cc1-c1ccc(C(=O)Nc2ccncc2)cc1
Result: false

Problem: %Inh under 8%? Item: CNc1nccc(-c2c(-c3ccc(F)cc3)ncn2CCCN2CCOCC2)n1
Result: false

Problem: %Inh under 8%? Item: FC(F)(F)c1ccc(-c2cc(-c3c[nH]nc3-c3ccccn3)ccn2)cc1
Result: false

Problem: %Inh under 8%? Item: CCc1nc(-c2cccc(C)c2)c(-c2ccnc(NC(=O)c3ccccc3)c2)s1
Result: false

Problem: %Inh under 8%? Item: CCC(CC)(CC)n1cnc2c(N)ncnc21
Result: true

Problem: %Inh under 8%? Item: Cl.c1ccc(Cn2ncc3cc(Nc4ncnc5ccccc45)ccc32)cc1
Result: false

Problem: %Inh under 8%? Item: N#Cc1ccc(Oc2ccc(Nc3ncnc4cc[nH]c34)cc2Cl)cc1
Result: true

Problem: %Inh under 8%? Item: CCn1c(-c2ccncc2)nc2cnccc21
Result: true

Problem: %Inh under 8%? Item: C[C@H]1CC[C@@H](C(=O)Nc2ccccc2)CN1c1cc(-c2ccc3c(N)n[nH]c3c2)nc(N)n1
Result: false

Problem: %Inh under 8%? Item: CC(C)N1CCC(n2cnc(-c3ccc(F)cc3)c2-c2ccnc(N)n2)CC1
Result: false

Problem: %Inh under 8%? Item: Cn1ccc2ncnc(Nc3ccc(Oc4cccc(Cl)c4)c(Cl)c3)c21
Result: true

====

system: FRK; conditions: concentration: 1 μM, replicates: in singlicate; n = 1
Kindly supply the reported %Inh values for the records listed here.
Return type: number; implicit unit %.

%Inh recorded for this compound, Cl.c1ccc(Cn2ncc3cc(Nc4ncnc5ccccc45)ccc32)cc1 , is 0

%Inh recorded for this compound, Clc1cccc(-c2nc(Nc3ccncc3)c3ccccc3n2)c1 , is 29

%Inh recorded for this compound, Cc1cccc(-c2nc(Nc3ccc4[nH]nnc4c3)c3ccccc3n2)n1 , is 0

%Inh recorded for this compound, CS(=O)(=O)CCNCc1ccc(-c2ccc3ncnc(Nc4ccc(OCc5ccccc5)c(Cl)c4)c3c2)o1.Cl , is 0

%Inh recorded for this compound, O=C(NCCCN1CCCC1=O)c1cnc(NCc2cc(Cl)ccc2Cl)nc1NC1CCNCC1 , is 0

%Inh recorded for this compound, O=C(c1ccc(-c2cc(-c3c[nH]nc3-c3ccccn3)ccn2)cc1)N1CCCC1 , is 0

%Inh recorded for this compound, Nc1nc(-c2ccccn2)c(-c2ccnc3ccccc23)s1 , is 0

%Inh recorded for this compound, O=c1cc(N2CCOCC2)nc2n(Cc3cccc(Cl)c3)ccn12 , is 7

%Inh recorded for this compound, CCC(CC)(CC)n1cnc2c(N)ncnc21 , is 23

%Inh recorded for this compound, O=C(CCO)NCCn1ccc2ncnc(Nc3ccc(Oc4cccc(C(F)(F)F)c4)c(Cl)c3)c21 , is 0

%Inh recorded for this compound, O=C(Nc1ccccc1F)NC1CCN(c2ccnc(Nc3ccc(F)cc3)n2)C1 (centres unmarked) , is 9

%Inh recorded for this compound, CC(=O)Nc1n[nH]c2ncc(-c3ccccc3)cc12 , is 0

%Inh recorded for this compound, Nc1nc(-c2cccnc2)c(-c2ccnc3ccccc23)s1 , is 5

%Inh recorded for this compound, Nc1n[nH]c2nnc(-c3ccccc3)cc12 , is 6

%Inh recorded for this compound, CN1c2ccc(-c3ccc(C(=O)NCCO)cc3)cc2-c2[nH]ncc2S1(=O)=O , is 1

%Inh recorded for this compound, COC(=O)c1cccc(NC(=O)NCCNc2ccnc(Nc3ccc(F)cc3)n2)c1 , is 1

%Inh recorded for this compound, C[C@H]1CC[C@@H](C(=O)Nc2ccccc2)CN1c1cc(-c2ccc3c(N)n[nH]c3c2)nc(N)n1 , is 5

%Inh recorded for this compound, CS(=O)(=O)CCNCc1nc(-c2ccc3ncnc(Nc4ccc(OCc5cccc(F)c5)c(Cl)c4)c3c2)cs1.Cl , is 0

%Inh recorded for this compound, Cl.Fc1ccccc1COc1ccc(Nc2ncnc3ccc(-c4nnc(C(F)(F)F)o4)cc23)cc1Cl , is 0

%Inh recorded for this compound, Cl.O=S(=O)(c1cccc(F)c1)c1ccc(Nc2ncnc3cc(Br)sc23)cc1Cl , is 0

%Inh recorded for this compound, Cn1ccc2ncnc(Oc3ccc(NC(=O)Nc4cccnc4)c(Cl)c3)c21 , is 0

%Inh recorded for this compound, C[C@@H]1CCN(C(=O)CO)C[C@@H]1N(C)c1ncnc2[nH]ccc12 , is 3

%Inh recorded for this compound, COc1ccc(Nc2nccc(N3CCC(NC(=O)c4cccc(NC(C)=O)c4)C3)n2)cc1 (centres unmarked) , is 0

%Inh recorded for this compound, Fc1cccc(COc2ccc(Nc3ncnc4sc(-c5ccc[nH]5)cc34)cc2Cl)c1 , is 0

%Inh recorded for this compound, Nc1nc(-c2ccc3c(N)n[nH]c3c2)cc(N2CCCCC2)n1 , is 0

%Inh recorded for this compound, COc1cc2ncnc(Nc3ccc(OCc4ccccc4Br)c(Cl)c3)c2cc1OC.Cl , is 6

%Inh recorded for this compound, Cl.Cl.c1ccc(-c2cc3ccncc3cc2OC2CCNCC2)cc1 , is 0

%Inh recorded for this compound, OCCOCCn1ccc2ncnc(Nc3ccc(Oc4cccc(Cl)c4)c(Cl)c3)c21 , is 0

%Inh recorded for this compound, O=C(Nc1n[nH]c2nc(-c3ccco3)c(Br)cc12)c1ccc(CN2CCCC2)cc1.O=C(O)[C@H](O)[C@@H](O)C(=O)O , is 0

Hello, the source for this data is paper PMC5540273, in case you need it.
